- EXPERIMENTAL TARGET: WW2W domain of WWOX (WW2 domain, residues 57–91, with the Y85W substitution) (human, UniProt Q9NZC7 57-91, Y85W)
- Sequence (Q9NZC7 57-91 Y85W): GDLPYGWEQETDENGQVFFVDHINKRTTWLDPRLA
- METHOD NOTES: ITC
Let's look at some binders and their measured pKd.
Note: pKd values are expressed as the negative base-10 logarithm of concentration in M.

>>> result("GHSPPPAYTPMS [ErbB4_PY2 peptide (12-mer spanning the PY2 PPXY motif of the ICD of ErbB4)]")
3.21

Let's switch to this binder now.
Data request, read-out pKd, for FNIPPPIYTSRA [ErbB4_PY1 peptide (12-mer spanning the PY1 PPXY motif of the ICD of ErbB4)] 3.17
